Source of measurements: patent US20250163066A1

# assay.target: MALT1 (Homo sapiens (Human), UniProt Q9UDY8)
# Sequence (Q9UDY8 whole entry): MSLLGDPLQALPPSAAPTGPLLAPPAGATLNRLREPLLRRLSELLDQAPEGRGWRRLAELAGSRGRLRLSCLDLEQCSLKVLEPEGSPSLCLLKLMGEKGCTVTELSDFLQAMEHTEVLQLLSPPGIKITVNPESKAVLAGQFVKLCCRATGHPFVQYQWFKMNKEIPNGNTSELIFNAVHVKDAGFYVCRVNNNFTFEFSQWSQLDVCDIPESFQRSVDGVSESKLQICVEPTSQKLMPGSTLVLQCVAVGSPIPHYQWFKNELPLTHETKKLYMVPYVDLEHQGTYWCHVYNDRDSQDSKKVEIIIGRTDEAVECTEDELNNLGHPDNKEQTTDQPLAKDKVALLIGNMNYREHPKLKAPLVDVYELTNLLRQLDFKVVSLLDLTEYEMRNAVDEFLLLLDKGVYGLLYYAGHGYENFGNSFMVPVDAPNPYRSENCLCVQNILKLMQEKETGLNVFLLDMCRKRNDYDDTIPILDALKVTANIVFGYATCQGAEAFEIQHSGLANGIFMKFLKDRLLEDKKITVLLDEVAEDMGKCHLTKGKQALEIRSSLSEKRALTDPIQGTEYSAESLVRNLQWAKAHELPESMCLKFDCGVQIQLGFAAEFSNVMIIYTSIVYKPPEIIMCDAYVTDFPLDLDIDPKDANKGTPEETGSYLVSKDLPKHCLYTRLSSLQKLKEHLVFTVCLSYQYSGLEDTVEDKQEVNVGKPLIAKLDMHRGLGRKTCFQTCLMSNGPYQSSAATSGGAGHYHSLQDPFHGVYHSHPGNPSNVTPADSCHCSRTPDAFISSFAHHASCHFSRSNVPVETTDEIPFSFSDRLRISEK
# protocol.notes: MALT1 enzymatic activity inhibition (fluorescence, Ac-LRSR-AMC substrate)
# Assay type: biochemical
# condition.label: recombinant MALT1 1.5 ng/μl, Ac-LRSR-AMC 1 μM
parameter: EC50

stdin: MALT1 (Homo sapiens (Human), UniProt Q9UDY8) / EC50 / O=C(CCOCCOCCN1CCN(c2ccc3c(c2)CN(C2CCC(=O)NC2=O)C3=O)CC1)NCCOc1ncc(Cl)cc1NC(=O)Nc1cnc2ccnn2c1C1CCCO1 (stereo not drawn) : value?
stdout: 1 to 5 µM

stdin: Could you share what EC50 was measured for Cc1cc(NC(=O)Nc2cnc3ccnn3c2C2CCCC2)cnc1N1CCN(c2ccc3c(c2)CN(C2CCC(=O)NC2=O)C3=O)CC1 (stereo not drawn) , tested on MALT1 (Homo sapiens (Human), UniProt Q9UDY8)?
stdout: 1 to 5 µM

stdin: Checklist item: EC50 tested on MALT1 (Homo sapiens (Human), UniProt Q9UDY8), entry Cc1cc(NC(=O)Nc2cnc3ccnn3c2C(C)C)cnc1-c1nnc(CCCCC(=O)N2CCN(c3ccc4c(c3)CN(C3CCC(=O)NC3=O)C4=O)CC2)s1 (stereo not drawn) , value?
stdout: 0.2 to 0.5 µM

stdin: API: value(readout=EC50, system=MALT1 (Homo sapiens (Human), UniProt Q9UDY8)) for record O=C1CCC(N2Cc3cc(N4CCN(C(=O)CCCCCc5nnc(-c6ccc(NC(=O)Nc7cnc8ccnn8c7C7CCCC7)cn6)s5)CC4)ccc3C2=O)C(=O)N1 (stereo not drawn)
stdout: 1 to 5 µM

stdin: # query: EC50 | item Cc1cc(NC(=O)Nc2cnc3ccnn3c2C2CCCO2)cnc1N1CCN(C(=O)CCOCCN2CCN(c3ccc4c(c3)CN(C3CCC(=O)NC3=O)C4=O)CC2)CC1 (stereo not drawn) | system: MALT1 (Homo sapiens (Human), UniProt Q9UDY8)
stdout: > 5 µM

Next item in the queue.
stdin: MALT1 (Homo sapiens (Human), UniProt Q9UDY8) / EC50 / Cc1cc(NC(=O)Nc2cnc3ccnn3c2C2CCCC2)cnc1-c1cn(CCCCOCC(=O)N2CCN(c3ccc4c(c3)CN(C3CCC(=O)NC3=O)C4=O)CC2)nn1 (stereo not drawn) : value?
stdout: 1 to 5 µM

* * *

# assay.target: MALT1 (Homo sapiens (Human))
# protocol.notes: MALT1 enzymatic activity inhibition (fluorescence, Ac-LRSR-AMC substrate)
# Format: biochemical
# condition.label: recombinant MALT1 1.5 ng/μl, Ac-LRSR-AMC 1 μM
Each record here notes measured EC50.

stdin: What value of EC50 has been reported for the following compound? O=C1CCC(N2Cc3cc(N4CCN(CCCCc5nc(-c6ncc(NC(=O)Nc7cnc8c(Cl)cnn8c7C7CCCC7)cc6Cl)no5)CC4)ccc3C2=O)C(=O)N1 (centres unmarked)
stdout: 1 to 5 µM

stdin: Which EC50 is listed for Cc1cc(NC(=O)Nc2cnc3ccnn3c2C(C)C)cnc1-c1noc(CCCC(=O)N2CCN(c3ccc4c(c3)CN(C3CCC(=O)N(COC(=O)C(C)(C)C)C3=O)C4=O)CC2)n1 (centres unmarked) ?
stdout: ≤ 0.2 µM

Proceed to the following item.
stdin: Requested read-out: EC50. Entry: Cc1cc(NC(=O)Nc2cnc3ccnn3c2C(C)C)cnc1-c1noc(CCCCCN2CCN(c3ccc4c(c3)CN(C3CCC(=O)NC3=O)C4=O)CC2)n1 (centres unmarked)
stdout: ≤ 0.2 µM
